Let's look at some compounds and their measured CC50.
- System: HEp-2 cells
- Method description: Cytotoxicity in parallel to the RSV-A assay (no virus), ATPlite readout
- Format: cell-based, human

Below, each entry is followed by its recorded CC50 result.
O=C1Nc2ccccc2C(c2ccccc2)=NC1Nc1nnc(-c2ccc(F)cc2)s1 (centres unmarked) : > 50 µM
O=C1Nc2ccccc2C(c2ccccc2)=NC1Nc1nnc(C2CCOCC2)o1 (centres unmarked) : > 50 µM
COc1cc(-c2nnc(NC3N=C(c4ccccc4)c4ccccc4NC3=O)o2)ccc1F (centres unmarked) : 10 to 50 µM
O=C1Nc2ccccc2C(c2ccccc2)=NC1Nc1cc(N2CCOCC2)ncn1 (centres unmarked) : 10 to 50 µM

Now look at this entry.
Problem: Please look at this compound and report its CC50: N#Cc1cc(-c2nnc(NC3N=C(c4ccccc4)c4ccccc4NC3=O)o2)ccn1 (centres unmarked)
Result: > 50 µM
